So I've got a bunch of molecules here, and I need their inhibition values.
Biological target: Phosphotyrosine-protein phosphatase PTPB (Mycobacterium tuberculosis) (UniProt P96830)
Sequence (whole entry): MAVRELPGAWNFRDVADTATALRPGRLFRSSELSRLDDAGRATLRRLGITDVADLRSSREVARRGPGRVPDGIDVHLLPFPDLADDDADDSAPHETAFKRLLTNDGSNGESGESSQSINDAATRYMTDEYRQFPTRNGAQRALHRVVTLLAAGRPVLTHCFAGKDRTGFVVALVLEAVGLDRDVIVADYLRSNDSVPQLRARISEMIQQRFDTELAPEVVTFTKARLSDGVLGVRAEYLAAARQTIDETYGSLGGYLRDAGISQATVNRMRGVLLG
Test: Inhibition of recombinant Mycobacterium tuberculosis H37Rv MptpB using pNPP as substrate incubated for 10 mins at 50 uM and measured by spectrophotometric method relative to control
Numbers only, in %.

Would you mind listing inhibition for each of the following molecules?
1. O=C1NC(=S)NC(=O)C1=Cc1cc(Br)ccc1OCc1ccc(Cl)cc1
2. CN1C(=O)C(=Cc2cc(-c3cc(Cl)c(O)c(Cl)c3)ccc2OCc2ccc(Cl)cc2)C(=O)N(C)C1=O

stdout:
1. 63
2. 51.9

----------
I'd appreciate it if you could supply inhibition values for the items below.
Biological target: Tyrosine-protein phosphatase non-receptor type 1 (Homo sapiens) (UniProt P18031)
Sequence (whole entry): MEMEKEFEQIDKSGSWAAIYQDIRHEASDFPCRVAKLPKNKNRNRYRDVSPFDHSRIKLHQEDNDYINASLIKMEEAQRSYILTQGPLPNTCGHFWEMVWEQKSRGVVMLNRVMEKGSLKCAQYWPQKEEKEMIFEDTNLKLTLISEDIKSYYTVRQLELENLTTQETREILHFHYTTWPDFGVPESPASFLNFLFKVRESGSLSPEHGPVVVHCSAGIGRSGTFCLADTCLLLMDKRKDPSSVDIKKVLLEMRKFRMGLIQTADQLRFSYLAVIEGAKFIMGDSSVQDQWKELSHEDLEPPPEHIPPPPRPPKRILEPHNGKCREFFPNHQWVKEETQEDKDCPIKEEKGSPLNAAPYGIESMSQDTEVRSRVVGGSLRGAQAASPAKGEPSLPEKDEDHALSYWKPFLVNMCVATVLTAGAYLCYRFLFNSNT
Test: Inhibition of recombinant human PTP1B using pNPP as substrate preincubated for 5 mins followed by substrate addition assessed as reduction in p-nitrophenol release at 50 uM relative to control
Give bare numbers, in %.

Example entries begin here.
structure smiles: O=C1NC(=S)NC(=O)C1=Cc1cc(-c2cc(Cl)c(O)c(Cl)c2)ccc1OCc1ccc(Cl)cc1
inhibition [%]: 98.3

structure smiles: O=C1NC(=S)NC(=O)C1=Cc1ccc(OCc2ccc(Cl)cc2)c(-c2cc(Cl)c(O)c(Cl)c2)c1
inhibition [%]: 98.2

structure smiles: O=C1NC(=S)NC(=O)C1=Cc1cc(OCc2ccc(Cl)cc2)cc(-c2cc(Cl)c(O)c(Cl)c2)c1
inhibition [%]: 93.7

Could you now look at the following compound, please?
stdin: In one line, give reported inhibition of the entry O=C1NC(=S)NC(=O)C1=Cc1cc(-c2ccc(C(F)(F)F)cc2)ccc1OCc1ccc(Cl)cc1 .
stdout: 81.4

----------
Biological target: Low molecular weight protein-tyrosine phosphatase A (Mycobacterium tuberculosis) (UniProt P9WIA1)
Sequence (P9WIA1 whole entry): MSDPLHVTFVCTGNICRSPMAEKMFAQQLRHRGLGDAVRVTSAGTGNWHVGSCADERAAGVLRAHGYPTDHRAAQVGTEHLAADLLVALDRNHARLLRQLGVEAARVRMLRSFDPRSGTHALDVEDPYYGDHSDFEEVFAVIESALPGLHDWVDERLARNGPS
Experiment: Inhibition of recombinant Mycobacterium tuberculosis H37Rv MptpA using pNPP as substrate at 50 uM incubated for 10 mins and measured by spectrophotometric method relative to control
reported metric: inhibition
Entry format: amount then unit.

// worked examples, inhibition included
structure smiles: O=C1NC(=S)NC(=O)C1=Cc1cc(-c2cc(Cl)c(O)c(Cl)c2)ccc1OCc1ccc(Cl)cc1
inhibition: 86.4%

structure smiles: O=C1NC(=S)NC(=O)C1=Cc1cc(-c2cc(Cl)c(O)c(Cl)c2)ccc1OCc1ccccc1
inhibition: 14.6%

Could you now look at the following molecule, please?
stdin: Return inhibition for the following molecule: O=C1NC(=S)NC(=O)C1=Cc1ccc(OCc2ccc(Cl)cc2)c(-c2cc(Cl)c(O)c(Cl)c2)c1
stdout: 69.6%

----------
Give measured inhibition for each item. Keep answers brief.
Target: Phosphotyrosine-protein phosphatase PTPB (Mycobacterium tuberculosis) (UniProt P96830)
Sequence (whole entry): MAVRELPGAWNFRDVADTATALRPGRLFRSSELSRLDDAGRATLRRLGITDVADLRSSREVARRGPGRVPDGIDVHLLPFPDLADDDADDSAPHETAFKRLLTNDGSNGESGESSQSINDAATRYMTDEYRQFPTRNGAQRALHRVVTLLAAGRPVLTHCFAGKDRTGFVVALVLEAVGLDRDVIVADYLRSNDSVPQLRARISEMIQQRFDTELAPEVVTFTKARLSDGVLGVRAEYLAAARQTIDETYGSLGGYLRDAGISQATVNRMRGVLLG
Test: Inhibition of recombinant Mycobacterium tuberculosis H37Rv MptpB using pNPP as substrate incubated for 10 mins at 50 uM and measured by spectrophotometric method relative to control
Give bare numbers, in %.

structure smiles: O=C1NC(=S)NC(=O)C1=Cc1ccc(OCc2ccc(Cl)cc2)cc1-c1cc(Cl)c(O)c(Cl)c1
inhibition [%]: 95
//
structure smiles: O=C1NC(=O)C(=Cc2cc(-c3cc(Cl)c(O)c(Cl)c3)ccc2OCc2ccc(Cl)cc2)C(=O)N1
inhibition [%]: 16.2
//
structure smiles: CN1C(=O)C(=Cc2cc(-c3cc(Cl)c(O)c(Cl)c3)ccc2OCc2ccc(Cl)cc2)C(=O)N(C)C1=S
inhibition [%]: 87
//
structure smiles: O=C1NC(=S)NC(=O)C1=Cc1cc(-c2cc(Cl)c(O)c(Cl)c2)ccc1OCc1ccc(Cl)cc1
inhibition [%]: 95.9
//
structure smiles: O=C1NC(=S)NC(=O)C1=Cc1cc(-c2ccc(OC(F)(F)F)cc2)ccc1OCc1ccc(Cl)cc1
inhibition [%]: 65

Let us move to another entry and its inhibition.
stdin: # return recorded inhibition for entry O=C1NC(=S)NC(=O)C1=Cc1cc(-c2cc(Cl)c(O)c(Cl)c2)ccc1OCc1ccccc1
stdout: 95.4
